All figures here come from ChEMBL document CHEMBL1909046.

pKi: −log10 of the molar value.
For Mu-type opioid receptor (Homo sapiens, UniProt P35372), measured pKi is reported for the entries below.
OBSERVATION_TYPE: pKi

> print(dat)
                                   molecule                               measured.on  observation.type  recorded.number
1  Fc1ccc(C(c2ccc(F)cc2)N2CCN(C/C=C/c3ccccc3)CC2)cc1  Mu-type opioid receptor (Homo sapiens, UniProt P35372)               pKi             5.67
2  Cc1c(C)c2c(c(C)c1O)CCC(C)(CN1CCN(c3cc(N4CCCC4)nc(N4CCCC4)n3)CC1)O2 (configuration not stated)  Mu-type opioid receptor (Homo sapiens, UniProt P35372)               pKi             5.36

----------
- MEASURED_ON: Glycine receptor (Rattus norvegicus, UniProt P22771+P24524+P07727+P20781)
- Format: cell membranes, Wistar, Spinal cord, Membrane
OBSERVATION_TYPE: Ki

> print(dat)
                      substance      result
1                     AURANOFIN  Not Active
2                      NYSTATIN  Not Active
3     GADOPENTETATE DIMEGLUMINE  Not Active
4                    GENTAMICIN  Not Active
5                    GRAMICIDIN  Not Active
6  MANGANESE CHLORIDE ANHYDROUS  Not Active
7             SODIUM ORTHOVANAD  Not Active

----------
- MEASURED_ON: Neuropeptide Y receptor type 1 (Homo sapiens, UniProt P25929)
- Sequence (P25929 whole entry): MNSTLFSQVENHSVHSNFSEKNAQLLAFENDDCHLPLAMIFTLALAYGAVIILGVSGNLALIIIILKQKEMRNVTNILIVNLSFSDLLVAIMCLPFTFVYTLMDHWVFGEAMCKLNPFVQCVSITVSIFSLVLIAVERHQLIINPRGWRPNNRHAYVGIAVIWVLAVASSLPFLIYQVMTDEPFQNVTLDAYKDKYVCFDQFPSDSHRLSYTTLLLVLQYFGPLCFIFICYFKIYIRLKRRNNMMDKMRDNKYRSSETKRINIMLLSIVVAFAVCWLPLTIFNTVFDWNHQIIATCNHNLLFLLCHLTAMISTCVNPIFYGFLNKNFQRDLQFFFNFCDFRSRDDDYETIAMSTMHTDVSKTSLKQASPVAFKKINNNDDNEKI
- Format: cell membranes, Membrane
- CONDITION: sk-n-mc

MOLECULE	IC50
COc1cc([C@@H]2c3cc4c(cc3[C@@H](O[C@@H]3O[C@@H]5CO[C@@H](C)O[C@H]5[C@H](O)[C@H]3O)[C@H]3COC(=O)[C@H]23)OCO4)cc(OC)c1O [ETOPOSIDE]	Not Active
C[C@@H]1O[C@@H](O[C@@H]2C=C3CC[C@@H]4[C@H](CC[C@]5(C)[C@@H](c6ccc(=O)oc6)CC[C@]45O)[C@@]3(C)CC2)[C@H](O)[C@H](O)[C@H]1O	Not Active
C[C@H]1O[C@@H](n2cc(F)c(=O)[nH]c2=O)[C@H](O)[C@@H]1O	Not Active

----------
- MEASURED_ON: Sodium-dependent noradrenaline transporter (Homo sapiens, UniProt P23975)
- Sequence (P23975 whole entry): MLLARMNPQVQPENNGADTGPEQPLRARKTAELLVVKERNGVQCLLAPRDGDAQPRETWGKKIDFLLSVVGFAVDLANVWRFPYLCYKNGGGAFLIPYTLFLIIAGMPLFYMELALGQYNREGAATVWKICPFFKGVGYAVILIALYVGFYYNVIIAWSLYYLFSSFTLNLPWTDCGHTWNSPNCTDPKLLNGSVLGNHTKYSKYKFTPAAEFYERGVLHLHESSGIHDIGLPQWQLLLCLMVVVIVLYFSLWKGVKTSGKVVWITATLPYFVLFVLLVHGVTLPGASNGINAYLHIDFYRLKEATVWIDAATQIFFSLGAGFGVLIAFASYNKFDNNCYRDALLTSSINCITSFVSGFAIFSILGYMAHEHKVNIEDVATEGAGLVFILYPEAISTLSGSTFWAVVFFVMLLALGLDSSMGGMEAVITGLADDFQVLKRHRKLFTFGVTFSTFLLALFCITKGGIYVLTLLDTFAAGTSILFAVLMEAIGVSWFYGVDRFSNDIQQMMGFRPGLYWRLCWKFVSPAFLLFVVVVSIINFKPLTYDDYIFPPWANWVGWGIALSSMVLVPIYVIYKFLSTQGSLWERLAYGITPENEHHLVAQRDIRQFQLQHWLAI
- ASSAY_NAME: DRUGMATRIX: Norepinephrine Transporter radioligand binding (ligand: [125I] RTI-55)
- Format: cell membranes, MDCK, Membrane
- CONDITION: mdck; Not Active = under 50% inhibition at 10 µM
OBSERVATION_TYPE: IC50

COMPOUND	OBSERVATION_TYPE	RESULT
CC(C(=O)O)c1cccc(Oc2ccccc2)c1 (stereo not given)	IC50	Not Active
C#C[C@]1(OC(C)=O)CC[C@H]2[C@@H]3CCC4=C[C@@H](OC(C)=O)CC[C@@H]4[C@H]3CC[C@@]21C [ETHYNODIOL DIACETATE]	IC50	Not Active
Oc1cccc(O)c1O	IC50	Not Active
CO[C@@H]1[C@@H](OC)[C@H](C)[C@@](O)(CC(=O)O)O[C@H]1[C@H](C)[C@H]1O[C@@]2(CC[C@@](C)([C@H]3CC[C@@](C)([C@@H]4O[C@@H]([C@H]5O[C@](C)(O)[C@H](C)C[C@@H]5C)C[C@@H]4O[C@@H]4C[C@H](OC)[C@@H](OC)[C@H](C)O4)O3)O2)C[C@H](O)[C@H]1C	IC50	Not Active
COc1ccc(C2C(=O)c3ccccc3C2=O)cc1	IC50	Not Active
CN(C)[C@@H]1C(O)=C(C(N)=O)C(=O)[C@@]2(O)C(O)=C3C(=O)c4c(O)ccc(Cl)c4[C@@](C)(O)[C@H]3C[C@@H]12	IC50	Not Active
CCC(=O)O[C@]1(C(=O)CCl)[C@@H](C)C[C@H]2[C@@H]3CCC4=CC(=O)C=C[C@]4(C)[C@@]3(F)[C@@H](O)C[C@@]21C [CLOBETASOL PROPIONATE]	IC50	Not Active
COC(=O)Nc1nc2ccc([S+]([O-])c3ccccc3)cc2[nH]1 (stereo not given)	IC50	Not Active
O=C1CN=C(c2ccccc2Cl)c2cc([N+](=O)[O-])ccc2N1	IC50	Not Active
CC(=O)O[C@H]1C(=O)[C@@]2(C)[C@H]([C@H](OC(=O)c3ccccc3)[C@]3(O)C[C@H](OC(=O)[C@H](O)[C@@H](NC(=O)c4ccccc4)c4ccccc4)C(C)=C1C3(C)C)[C@]1(OC(C)=O)CO[C@@H]1C[C@@H]2O	IC50	Not Active
O=C(N/N=C/c1ccc([N+](=O)[O-])o1)c1cc([N+](=O)[O-])cc([N+](=O)[O-])c1O	IC50	Not Active
Cc1c(OCC(F)(F)F)ccnc1C[S+]([O-])c1nc2ccccc2[nH]1 (stereo not given)	IC50	Not Active
C[C@H]1O[C@@H](n2cc(F)c(=O)[nH]c2=O)[C@H](O)[C@@H]1O	IC50	Not Active
C[C@H]1C[C@@H]2[C@H]([C@@H](O)C[C@@]3(C)[C@H]2CC[C@]3(O)C(=O)CO)[C@@]2(C)C=CC(=O)C=C12	IC50	Not Active
Cn1c(=O)c2c(ncn2CC(O)CO)n(C)c1=O (stereo not given)	IC50	Not Active
NNc1nncc2ccccc12 [HYDRALAZINE]	IC50	Not Active
CC(C)(C)NC(=O)[C@H]1CC[C@H]2[C@@H]3CC[C@H]4NC(=O)C=C[C@]4(C)[C@H]3CC[C@]12C [FINASTERIDE]	IC50	Not Active
CNC1(c2ccccc2Cl)CCCCC1=O (stereo not given)	IC50	Not Active
NC(=O)N1C(=O)/C(=C(\O)c2cccs2)c2cc(Cl)ccc21	IC50	Not Active
O=C(Nc1ccc(Br)cc1)c1cc(Br)cc(Br)c1O	IC50	Not Active
O=C(O)CCNC(=O)c1ccccc1	IC50	Not Active
C[n+]1ccccc1/C=N/O.[Cl-] [PRALIDOXIME CHLORIDE]	IC50	Not Active
N=C(N)NC(=O)Cc1c(Cl)cccc1Cl	IC50	Not Active
O.O.O.O.O.O.[Cl-].[Cl-].[Sr+2] [STRONTIUM CHLORIDE HEXAHYDRATE]	IC50	Not Active
COC(=O)CCc1ccc(OCC(O)CNC(C)C)cc1 (stereo not given)	IC50	Not Active
O=C1O[C@H]([C@@H](O)CO)C(O)=C1O	IC50	Not Active
O=c1cc(N2CCOCC2)oc2c(-c3ccccc3)cccc12	IC50	Not Active
CC(C)NCC(O)c1ccc(O)c(O)c1 (stereo not given)	IC50	Not Active
C[C@]12C=CC(=O)C=C1CC[C@@H]1[C@@H]2[C@@H](O)C[C@@]2(C)[C@H]1CC[C@]2(O)C(=O)CO	IC50	Not Active
C[C@@H]1O[C@@H](O[C@@H]2C=C3CC[C@@H]4[C@H](CC[C@]5(C)[C@@H](c6ccc(=O)oc6)CC[C@]45O)[C@@]3(C)CC2)[C@H](O)[C@H](O)[C@H]1O	IC50	Not Active
